- TARGET OR SYSTEM: human Flt-3 (Homo sapiens, UniProt P36888)
- Construct: expresses the amino acid region amino acids 563-993 of the intra-cytoplasmic kinase domains of human Flt-3; made in house; host or cells: Sf9 insect cells (baculovirus, pFbacG01 donor vector)
- Sequence (P36888 563-993): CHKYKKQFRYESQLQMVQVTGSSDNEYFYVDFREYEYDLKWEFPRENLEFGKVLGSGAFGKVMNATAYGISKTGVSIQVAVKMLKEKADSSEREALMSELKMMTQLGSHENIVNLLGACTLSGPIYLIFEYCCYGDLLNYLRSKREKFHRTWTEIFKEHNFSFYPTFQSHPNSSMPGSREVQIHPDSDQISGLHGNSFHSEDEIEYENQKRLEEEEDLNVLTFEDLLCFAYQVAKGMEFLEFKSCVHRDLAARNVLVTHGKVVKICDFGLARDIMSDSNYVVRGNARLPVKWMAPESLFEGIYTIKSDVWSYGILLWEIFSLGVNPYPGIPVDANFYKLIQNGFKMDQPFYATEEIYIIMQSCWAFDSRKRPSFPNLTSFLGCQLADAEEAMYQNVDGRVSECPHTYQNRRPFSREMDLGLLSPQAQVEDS
- MEASUREMENT NOTES: Tyrosine protein kinase assay with purified GST-Flt-3 (33P incorporation)
- Format: biochemical
- CONDITION DETAILS: at a 1.0 micromolar concentration
Is Flt3 Inhibition (percent inhibition of Flt3 kinase activity) at least 90%? Then yes (1). If not, no (0).

Answered cases to consult:
{"COMPOUND": "CO[C@@H]1/C(=N/O)C[C@H]2O[C@]1(C)n1c3ccccc3c3c4c(c5c6ccccc6n2c5c31)C(=O)NC4", "ANSWER LABEL": "no (0)"}
{"COMPOUND": "COC1C(=NOC(C)=O)CC2OC1(C)n1c3ccccc3c3c4c(c5c6ccccc6n2c5c31)C(=O)NC4 (stereo not drawn)", "ANSWER LABEL": "no (0)"}
{"COMPOUND": "COC1C(N(C)C(=O)c2cccc([N+](=O)[O-])c2)CC2OC1(C)n1c3ccccc3c3c4c(c5c6ccccc6n2c5c31)C(=O)NC4 (stereo not drawn)", "ANSWER LABEL": "no (0)"}
{"COMPOUND": "CNC1CC2OC(C)(C1O)n1c3ccccc3c3c4c(c5c6ccccc6n2c5c31)C(=O)NC4 (stereo not drawn)", "ANSWER LABEL": "yes (1)"}

Read the next record carefully.
I'd appreciate it if you could say whether COC1C(N(C)CC(=O)O)CC2OC1(C)n1c3ccccc3c3c4c(c5c6ccccc6n2c5c31)C(=O)NC4 (stereo not drawn) has Flt3 Inhibition (percent inhibition of Flt3 kinase activity) at least equal to 90%.
yes (1)
